tgt: β-catenin/BCL9 protein-protein interactions (Homo sapiens, UniProt P35222)
Construct: C-terminally His6-tagged wild-type or mutant β-catenin (residues 138-686) proteins
procedure-summary: AlphaScreen competitive inhibition assay, wild-type β-catenin/BCL9
run-parameters: wild-type β-catenin (residues 138-686)/biotinylated BCL9 26-mer; Ki derived from IC50; mean ± SD
Where a name gives a salt, the structure may show the parent alone.
Entries get a class label from measured Ki. See ranges: class 0 (below 6 µM), class 1 (6 µM to below 90 µM), class 2 (90 µM or more)

[in] Returns: class label. Input: O=C(NCCCC(=O)N1CCNCC1)c1ccc(-c2cc(C(=O)Nc3ccc(O[C@H]4CCNC4)c(-c4ccc(F)cc4)c3)ccc2O[C@H]2CCNC2)cc1 [Compound 29]
[out] class 0

[in] Tag the class for O=C(Nc1ccc(O[C@@H]2CCNC2)c(-c2ccc(F)cc2)c1)c1ccc(O[C@@H]2CCNC2)c(-c2ccc(F)c(F)c2)c1 [Compound 26]
[out] class 0

[in] Class for O=C(Nc1ccc(O[C@H]2CCNC2)c(-c2ccc(F)cc2)c1)c1ccc(O[C@H]2CCNC2)c(-c2ccc(F)nc2)c1 [Compound 95, dihydrochloride] ?
[out] class 2

[in] Bin this entry: NS(=O)(=O)c1ccc(-c2cc(NC(=O)c3ccc(O[C@H]4CCNC4)c(-c4ccc(F)c(F)c4)c3)ccc2O[C@H]2CCNC2)cc1 [Compound 91i, dihydrochloride]
[out] class 1

[in] Into which bin does this compound go? NC(=O)c1ccc(-c2cc(NC(=O)c3ccc(O[C@H]4CCNC4)c(-c4ccc(F)c(F)c4)c3)ccc2O[C@H]2CCNC2)cc1 [Compound 91h, dihydrochloride]
[out] class 1

[in] For this compound, which bin applies? NC(=O)c1cccc(-c2cc(NC(=O)c3ccc(O[C@H]4CCNC4)c(-c4ccc(F)c(F)c4)c3)ccc2O[C@H]2CCNC2)c1 [Compound 91g, dihydrochloride]
[out] class 2

[in] Class (by measured Ki) for O=C(Nc1ccc(O[C@H]2CCNC2)c(-c2ccc(F)cc2)c1)c1ccc(O[C@H]2CCNC2)c(-c2ccc3cc(F)ccc3c2)c1 [Compound 96]
[out] class 1

[in] Which class holds O=C(Nc1ccc(O[C@H]2CCNC2)c(-c2cccc(-c3nn[nH]n3)c2)c1)c1ccc(O[C@H]2CCNC2)c(-c2ccc(F)c(F)c2)c1 [Compound 91k, dihydrochloride] ?
[out] class 0

[in] Which class is correct for the following compound? O=C(Nc1ccc(O[C@@H]2CCNC2)c(-c2ccc(F)cc2)c1)c1ccc(O[C@H]2CCNC2)c(-c2ccc(F)c(F)c2)c1 [Compound 28]
[out] class 0

[in] Textbook exercise: identify the category of the compound given here, NCCOc1ccc(C(=O)Nc2cccc(-c3ccc(Cl)c(F)c3)c2)cc1-c1ccc(F)cc1 [Compound 11] , according to its measured value.
[out] class 1

[in] Which Ki category applies to CS(=O)(=O)Nc1cccc(-c2cc(NC(=O)c3ccc(O[C@H]4CCNC4)c(-c4ccc(F)c(F)c4)c3)ccc2O[C@H]2CCNC2)c1 [Compound 102] here?
[out] class 2

[in] Which of the defined bands does the recorded Ki of O=C(O)c1ccc(-c2cc(NC(=O)c3ccc(O[C@H]4CCNC4)c(-c4ccc(F)c(F)c4)c3)ccc2O[C@H]2CCNC2)cc1 [Compound 99] sit within?
[out] class 2

---

tgt: β-catenin/BCL9 protein-protein interactions (Homo sapiens, UniProt P35222)
Construct: C-terminally His6-tagged wild-type or mutant β-catenin (residues 138-686) proteins
Sequence (P35222 138-686): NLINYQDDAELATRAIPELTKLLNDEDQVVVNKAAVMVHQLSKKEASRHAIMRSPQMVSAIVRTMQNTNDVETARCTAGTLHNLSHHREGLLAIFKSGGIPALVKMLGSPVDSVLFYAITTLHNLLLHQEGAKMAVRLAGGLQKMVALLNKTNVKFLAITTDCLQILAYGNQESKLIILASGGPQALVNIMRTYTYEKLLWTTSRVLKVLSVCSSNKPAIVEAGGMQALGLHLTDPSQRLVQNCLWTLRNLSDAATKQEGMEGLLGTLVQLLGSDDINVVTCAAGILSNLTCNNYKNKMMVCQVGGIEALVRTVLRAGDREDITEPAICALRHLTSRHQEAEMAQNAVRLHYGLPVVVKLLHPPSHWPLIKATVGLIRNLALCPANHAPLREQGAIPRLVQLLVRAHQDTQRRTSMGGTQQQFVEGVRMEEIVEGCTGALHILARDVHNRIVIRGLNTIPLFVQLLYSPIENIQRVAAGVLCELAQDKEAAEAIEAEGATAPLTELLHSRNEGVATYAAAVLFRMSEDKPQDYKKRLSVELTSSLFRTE
procedure-summary: AlphaScreen competitive inhibition assay, wild-type β-catenin/BCL9
run-parameters: wild-type β-catenin (residues 138-686)/biotinylated BCL9 26-mer; Ki derived from IC50; mean ± SD
Structures can show the parent of a compound that is named as a salt.
readout-kind: Ki (µM)
Give the value, in units of µM, as a plain number.

[in] Identify measured Ki corresponding to O=C(Nc1cnc(O[C@H]2CCNC2)c(-c2ccc(F)cc2)c1)c1cnc(O[C@H]2CCNC2)c(-c2ccc(F)c(F)c2)c1 [Compound 84c, dihydrochloride]
[out] 68.6

[in] Fill in reported Ki for this entry: `Cl.NCCOc1ccc(C(=O)Nc2cccc(-c3ccc(F)cc3)c2)cc1-c1ccc(F)c(F)c1`
[out] 29.3

[in] Supply recorded Ki for N#Cc1ccc(-c2cc(NC(=O)c3ccc(O[C@H]4CCNC4)c(-c4ccc(F)c(F)c4)c3)ccc2O[C@H]2CCNC2)cc1 [Compound 91f, dihydrochloride] here.
[out] 29.5
